assay_notes: ATG_RORE_CIS: Attagene CIS-FACTORIAL HepG2 Assay for human RAR-related Orphan Receptor Element (RORE) (AID 2282959)
conditions: HepG2 Attagene cis-factorial RORE reporter, mRNA; actives raise or lower the signal
The source made the active and inactive calls. Rule for the calls: active = hit-call score of the fitted dose curve at least 0.9, where 1 is the maximum; inactive = score below 0.9.
Reply using exactly one outcome from true = active, false = inactive

Solved cases (4 shown):
- compound: "c1nc[nH]n1"
  answer_label: "false"
- compound: "c1ccc(OP(Oc2ccccc2)Oc2ccccc2)cc1"
  answer_label: "false"
- compound: "CCOP(=S)(OCC)SCSc1ccc(Cl)cc1"
  answer_label: "false"
- compound: "C=C(C)C(=O)OCC1CO1 (stereo not given)"
  answer_label: "false"

Could you check what this test reported for `N#C/C=C/c1ccccc1` ?
false

What classification did `Cc1cc(C)c(C(=O)P(=O)(c2ccccc2)c2ccccc2)c(C)c1` end up with in this test?
true

Per the records of this test, what outcome belongs to `Cc1cccc(N)c1` ?
false

Dear colleague, could you share the recorded outcome for `c1cc2c3c(cccc3c1)CC2` when you have a moment?
false

Please let me know the test result on file for ClC1=C(Cl)C2(Cl)C3C(Cl)C(Cl)CC3C1(Cl)C2(Cl)Cl (stereo not given) .
false

Please share the test call associated with `NC(=O)C(F)(F)C(F)(F)F` .
false

Recorded test outcome, item `N#Cc1cc([N+](=O)[O-])ccc1N`
false

What is the recorded call for this compound in the test? `CNC(=O)Oc1ccc(N(C)C)c(C)c1`
false

Name the outcome recorded for `C/C(=N\NC(=O)Nc1cc(F)cc(F)c1)c1ncccc1C(=O)O` in the assay.
false

What did the test return for `CCOC(=O)c1ccccc1N` ?
false

// return assay outcome for `CCCCN(CCCC)N=O`
false

----------
assay_notes: ATG_AP_1_CIS: Attagene CIS-FACTORIAL HepG2 Assay for human Activator Protein 1 (AP-1) (AID 2282931)
conditions: HepG2 Attagene cis-factorial AP-1 reporter mRNA; actives raise or lower the signal
Activity calls are given as the source filed them. Rule for the calls: active = hit-call score of the fitted dose curve at least 0.9, where 1 is the maximum; inactive = score below 0.9.
Use one of these outcomes when replying: true for active, false for inactive

Use these answered entries as a reference point.
- compound: "Cc1ccc(N)cc1N"
  answer_label: "false"
- compound: "CC1(C)CN=C(NN=C(/C=C/c2ccc(C(F)(F)F)cc2)/C=C/c2ccc(C(F)(F)F)cc2)NC1"
  answer_label: "false"
- compound: "CCCCc1ccc(O)cc1"
  answer_label: "true"
- compound: "C=CC(=O)OCC(F)(F)C(F)F"
  answer_label: "false"
- compound: "Nc1ccc(Cl)cc1"
  answer_label: "false"

Could you check what this test reported for `CC(Cl)(Cl)C(=O)O` ?
false

Lab log entry: `COP(=O)(CCC(=O)NCO)OC` — outcome as called in the assay?
false

Kindly provide the recorded test outcome for the following compound: `CC(C)(C)c1ccccc1OP(=O)(Oc1ccccc1)Oc1ccccc1`
true

Hi, sorry to bother you, what did the test record for `O=c1ssc(Cl)c1Cl` ?
false

----------
Read-out: CD40, CD40 (gene 958)
assay_notes: BSK_SAg_CD40: BioMAP Diversity Plus: SAg Assay for CD40 Biomarker Activity (AID 2283088)
conditions: primary human HUVEC with PBMC; actives raise or lower the signal
Calls of active or inactive are those of the source. Rule for the calls: active = hit-call score of the fitted dose curve at least 0.9, where 1 is the maximum; inactive = score below 0.9.
// one of Y for active, N for inactive, no free text

- compound: "OCC(F)(F)OC(F)(F)C(F)(F)OC(F)(F)CO"
  answer_label: "N"

Answer briefly: the call reported for `CCOc1ccc(C(C)(C)COCc2cccc(Oc3ccccc3)c2)cc1` in this assay.
N

Hey, what did the test say about `ClC(Cl)(Cl)c1ccccc1` ?
N

Would you mind telling me which call this test gave `COP(=O)(CCC(=O)NCO)OC` ?
N

Recorded test outcome, item `CC(C)(C)OOC(C)(C)C`
N

Test call, this compound: `CCOC(=O)c1ccccc1C(=O)OCC`
N
